- Target: BRD4 (Homo sapiens, UniProt O60885)
- Experiment: Live cell kinetic HiBiT degradation assay, HiBiT-BRD4 HEK293 cells (parental, CRBN KO, VHL KO)
- Format: cell-based
- Setup conditions: HiBiT-BRD4 CRISPR knock-in HEK293 cells, live cell kinetic degradation, 24 h; read-out: Dmax 50 BRD4
This section presents molecules with their documented EC50 values.
Please respond with the number in nM and leave the unit unwritten.

Known results for molecules:
Note down EC50 recorded for Cc1ncsc1-c1ccc(CNC(=O)[C@@H]2C[C@@H](O)CN2C(=O)[C@@H](NC(=O)COCC(C)(COCCOCCOCCNc2cc3c(cc2F)C(=O)N(C2CCC(=O)NC2=O)C3=O)COCCOCCOCCOC(=O)C[C@@H]2N=C(c3ccc(Cl)cc3)c3c(sc(C)c3C)-n3c(C)nnc32)C(C)(C)C)cc1 (mixture of isomers)
3

Note down EC50 recorded for Cc1ncsc1-c1ccc(CNC(=O)[C@@H]2C[C@@H](O)CN2C(=O)[C@@H](NC(=O)COCC(C)(COCCOCCOCCOC(=O)C[C@@H]2N=C(c3ccc(Cl)cc3)c3c(sc(C)c3C)-n3c(C)nnc32)COCCOCCOCCN2CCN(c3cccc4c3C(=O)N(C3CCC(=O)NC3=O)C4=O)CC2)C(C)(C)C)cc1 (mixture of isomers)
15

Further cases:
Note down EC50 recorded for Cc1ncsc1-c1ccc(CNC(=O)[C@@H]2C[C@@H](O)CN2C(=O)[C@@H](NC(=O)COCC(C)(COCCOCCNc2cc3c(cc2F)C(=O)N(C2CCC(=O)NC2=O)C3=O)COCCOCCOC(=O)C[C@@H]2N=C(c3ccc(Cl)cc3)c3c(sc(C)c3C)-n3c(C)nnc32)C(C)(C)C)cc1 (mixture of isomers)
8.2

Hey, just so you know, these numbers are from paper PMC11638965.
